Each record here notes measured pIC50.
molecular target: T1, human IL-17A (human, UniProt Q16552 24-155, biotinylated with Sulfo-NHS-LC-Biotin in the AlphaScreen assays only); assay: AlphaScreen competition, hIL-17A - IL-17RC-Fc;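 note: Read-out after 1 h at room temperature with the receptor Fc-fusion, Acceptor beads and streptavidin-coated Donor beads present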
T1 construct: also called hIL-17A; recombinant human IL-17A
T1 sequence (Q16552 other isoform, or with tags, fused parts or gaps): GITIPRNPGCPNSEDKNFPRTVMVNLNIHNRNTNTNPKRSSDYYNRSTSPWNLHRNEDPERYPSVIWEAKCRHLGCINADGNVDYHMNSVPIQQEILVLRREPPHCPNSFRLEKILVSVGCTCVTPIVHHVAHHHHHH
pIC50: −log10 of the molar value.
Parameter: pIC50

* 01G03 (VHH, Class 1 Nanobody (anti-IL-17A); not shown: c-myc, His6 tag) VHH: EVQLVESGGGLVQAGGSLRLSCAASERTISNYDMGWFRQAPGKERELIAADISWSALNTNYADSVKGRFTISRDNAKNMVYLQMNNLKPEDTAVYYCAARRSGYASFDNWGQGTQVTVSS | 8.94
* 11A06 (VHH, Class 2 Nanobody (anti-IL-17A and IL-17A/F); not shown: c-myc, His6 tag) VHH: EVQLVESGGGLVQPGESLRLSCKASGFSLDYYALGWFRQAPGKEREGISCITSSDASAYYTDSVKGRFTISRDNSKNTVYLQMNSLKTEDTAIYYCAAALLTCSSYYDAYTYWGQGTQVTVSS | 9.34
* 04F09 (VHH, Class 2 Nanobody (anti-IL-17A and IL-17A/F); not shown: c-myc, His6 tag) VHH: EVQLVESGGGLVQPGGSLRLSCAASGRTFSTHAMGWFRQAPGKERDFVAAIRWSDGSSFYADSVKGRFTISRDNAKNAVYLQSNSLKSEDTAVYVCYADVEGPTALHKYWGRGTQVTVSS | 9.33
* 03B08 (VHH, Class 1 Nanobody (anti-IL-17A); not shown: c-myc, His6 tag) VHH: EVQLVESGGGLVQAGGSLRLSCAASGFTFDDYAIGWFRQAPGKEREGVSCISSSDGSIYYADSVKGRFTISSDNAKNTVYLQMNSLKPEDTAVYHCARFGRTGWAEECVDYDYWGQGTQVTVSS | 9.42
* 02A10 (VHH, Class 2 Nanobody (anti-IL-17A and IL-17A/F); not shown: c-myc, His6 tag) VHH: EVQLVESGGGLVQPGGSLRLSCAASGFALGYYAIGWFRQAPGKEREGVSCDSSSDGRTYYGDSVKGRFTISTDSAKNTVYLQMNSLKPEDTAVYYCATCTDFEYDYWGQGTQVTVSS | 9.42
* 04G01 (VHH, Class 2 Nanobody (anti-IL-17A and IL-17A/F); also called IL17MS04G01; not shown: c-myc, His6 tag) VHH: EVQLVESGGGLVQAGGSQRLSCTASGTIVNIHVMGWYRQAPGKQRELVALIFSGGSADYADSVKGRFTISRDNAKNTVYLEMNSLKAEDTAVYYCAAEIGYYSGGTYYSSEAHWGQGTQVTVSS | 9.66
* 09D10 (VHH, Class 2 Nanobody (anti-IL-17A and IL-17A/F); not shown: c-myc, His6 tag) VHH: EVQLVESGGGLVQAGGSLSLSCAASGSVFRIDVMRWHRQAPGKQREFLASIASGGTTNYADSVKGRFTISRDNAKNTVYLQMNSLKPEDTAVYYCGANAESGPYTYWGLGTQVTVSS | 8.95
* 01A01 (VHH, Class 4 Nanobody (cross-reactive: anti-IL-17A, IL-17F and IL-17A/F); not shown: c-myc, His6 tag) VHH: EVQLVESGGGLVQAGGSLRLSCAASGFTFDDYDIGWFRQAPGKEREGVSCFTSSDGRTFYADSVKGRFTVSADNAKNTVYLQMNSLEPEDTAVYFCAAVNTFDESAYAAFACYDVVRWGQGTQVTVSS | 9.68
* 17C01 (VHH, Class 4 Nanobody (cross-reactive: anti-IL-17A, IL-17F and IL-17A/F); not shown: c-myc, His6 tag) VHH: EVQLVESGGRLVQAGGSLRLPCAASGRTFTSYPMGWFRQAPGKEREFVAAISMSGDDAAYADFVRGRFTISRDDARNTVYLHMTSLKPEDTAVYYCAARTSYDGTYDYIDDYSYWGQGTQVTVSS | 9.77
* 04B10 (VHH, Class 2 Nanobody (anti-IL-17A and IL-17A/F); not shown: c-myc, His6 tag) VHH: EVQLVESGGGLVQAGGSQSLSCVASGTIVNINVMGWYRQAPGKQRELVALITSGGGTTYGDSVKGRFTISIDNAKNTVILQMNSLEAEDTAVYYCAAEIGYYSGGTYFSSEAHWGQGTQVTVSS | 9.44
* 13B05 (VHH, Class 4 Nanobody (cross-reactive: anti-IL-17A, IL-17F and IL-17A/F); not shown: c-myc, His6 tag) VHH: EVQLVESGGRLVQAGGSLRLSCAASGRTFTSYPMGWFRQAPGKEREFVAAISMSGDDTAYTDFVRGRFTISRDDARNTVYLHMTSLKPEDTAVYYCAARTSYDGTYDYIDDYSYWGQGTQVTVSS | 9.60
* 13E05 (VHH, Class 4 Nanobody (cross-reactive: anti-IL-17A, IL-17F and IL-17A/F); not shown: c-myc, His6 tag) VHH: EVQLVESGGGKVQAGDSLTLSCVASGGTFSNYAAWFRQAPGKDRRELVVSIFRTGSITYTADSVKGRFTASRVNTKNTVYLQMNSLKPEDTAVYYCASAYNPGVGYDYWGQGTQVTVSS | 8.96
